Test: Selectivity index, ratio of IC50 for human HeLa cells to MIC for metronidazole sensitive Trichomonas vaginalis ATCC 33592
Type: toxicity, cell-based
Conditions: read-out: Selectivity Index
value_type: selectivity ratio
Output: the number by itself.

// known answers, use as guide
• CCN1CCN(CC(O)Cn2c([N+](=O)[O-])cnc2C)CC1 (racemic) = 407
• Cc1ncc([N+](=O)[O-])n1CC(O)CSC(=S)N1CCCC1 (racemic) = 35

Returns the measured selectivity ratio for the input compound. Input: CCN(C)C(=S)SCC(O)Cn1c([N+](=O)[O-])cnc1C (stereo not drawn) 169

Returns the measured selectivity ratio for the input compound. Input: Cc1ncc([N+](=O)[O-])n1CC(O)CSC(=S)N1CCOCC1 (racemic) 125

Returns the measured selectivity ratio for the input compound. Input: Cc1ncc([N+](=O)[O-])n1CC(O)CN1CCN(c2cccc(Cl)c2)CC1 (racemic) 10

Returns the measured selectivity ratio for the input compound. Input: Cc1ncc([N+](=O)[O-])n1CC(O)CSC(=S)N1CCC(Cc2ccccc2)CC1 (racemic) 91

Returns the measured selectivity ratio for the input compound. Input: Cc1ncc([N+](=O)[O-])n1CC(O)Cn1cncn1 (racemic) 160

Returns the measured selectivity ratio for the input compound. Input: Cc1ncc([N+](=O)[O-])n1CC(O)CSC(=S)N1CCN(C(=O)OC(C)(C)C)CC1 (racemic) 39
